target: sGC α1/β1 heterodimer stably expressed in CHO-K1 cells (CHO-K1/sGC) (Homo sapiens (Human), UniProt Q02108+Q02153); test: Cell-based sGC functional assay (Cyclic GMP Assay for sGC Activator: CASA assay); details: CHO-K1, activity expressed as a percentage of compound A (standard), read-out: % Activation
Sequence (Q02108 whole entry): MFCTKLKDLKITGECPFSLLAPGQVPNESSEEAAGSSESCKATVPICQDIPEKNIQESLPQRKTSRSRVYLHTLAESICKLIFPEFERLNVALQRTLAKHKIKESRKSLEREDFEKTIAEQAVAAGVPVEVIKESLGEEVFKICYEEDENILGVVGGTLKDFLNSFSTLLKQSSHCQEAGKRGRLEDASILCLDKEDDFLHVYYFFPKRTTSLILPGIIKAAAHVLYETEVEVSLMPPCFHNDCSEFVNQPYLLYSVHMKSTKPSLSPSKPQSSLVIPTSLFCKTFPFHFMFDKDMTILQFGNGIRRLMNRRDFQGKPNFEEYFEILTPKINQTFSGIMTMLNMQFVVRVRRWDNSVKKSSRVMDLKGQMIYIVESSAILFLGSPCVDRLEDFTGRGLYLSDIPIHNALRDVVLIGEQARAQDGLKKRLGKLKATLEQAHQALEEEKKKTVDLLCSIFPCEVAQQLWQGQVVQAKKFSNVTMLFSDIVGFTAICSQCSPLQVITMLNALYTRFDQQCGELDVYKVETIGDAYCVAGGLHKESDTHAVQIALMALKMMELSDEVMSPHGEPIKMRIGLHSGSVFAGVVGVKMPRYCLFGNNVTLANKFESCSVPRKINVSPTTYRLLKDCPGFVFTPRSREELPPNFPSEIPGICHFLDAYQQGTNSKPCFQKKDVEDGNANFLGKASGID
Sequence (Q02153 whole entry): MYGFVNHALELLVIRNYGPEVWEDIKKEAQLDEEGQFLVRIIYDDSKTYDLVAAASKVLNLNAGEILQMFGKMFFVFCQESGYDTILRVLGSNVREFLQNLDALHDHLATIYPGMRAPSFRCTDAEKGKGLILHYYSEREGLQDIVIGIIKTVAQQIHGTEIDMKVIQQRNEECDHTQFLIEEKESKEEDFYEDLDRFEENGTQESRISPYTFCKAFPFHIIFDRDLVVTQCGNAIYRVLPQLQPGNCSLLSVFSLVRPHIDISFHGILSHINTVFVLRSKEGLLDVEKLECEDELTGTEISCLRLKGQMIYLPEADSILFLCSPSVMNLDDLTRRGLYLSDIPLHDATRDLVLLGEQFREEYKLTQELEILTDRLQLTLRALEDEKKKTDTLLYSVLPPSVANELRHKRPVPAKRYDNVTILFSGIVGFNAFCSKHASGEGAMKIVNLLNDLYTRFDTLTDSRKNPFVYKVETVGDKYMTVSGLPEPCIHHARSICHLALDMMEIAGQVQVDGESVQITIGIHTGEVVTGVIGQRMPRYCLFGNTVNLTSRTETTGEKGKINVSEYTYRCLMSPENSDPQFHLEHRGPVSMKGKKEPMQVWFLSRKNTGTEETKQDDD
Recorded metric: Emax (%)

compound="CC1(c2ccc(CCc3nn[nH]n3)cn2)C(=O)Nc2nc(-c3nn(Cc4ccccc4F)c4ccccc34)nc(N)c21 (single isomer, unassigned) [Example 246A]" recorded_metric=Emax result_units=% experimental_result=95.3
compound="CC1(c2cccc(-c3nn[nH]n3)n2)C(=O)Nc2nc(-c3nn(Cc4ccccc4F)c4cc(Cl)ccc34)nc(N)c21 (single isomer, unassigned) [Example 253A]" recorded_metric=Emax result_units=% experimental_result=96.7
compound="CC(C)(Cc1coc(C2(C)C(=O)Nc3nc(-c4nn(CC5CCCCO5)c5ccccc45)nc(N)c32)n1)C(=O)O (single isomer, unassigned) [Example 230AA]" recorded_metric=Emax result_units=% experimental_result=99.1
compound="CC1CCC(Cn2nc(-c3nc(N)c4c(n3)NC(=O)C4(C)c3nc(CC(C)(C)C(=O)O)co3)c3ccc(F)cc32)CC1 (racemic) [Example 137AA]" recorded_metric=Emax result_units=% experimental_result=92.1
compound="CC1(c2nn(C(C)(C)C(=O)O)c(=O)o2)C(=O)Nc2nc(-c3nn(CCC(F)(F)C(F)(F)F)c4cc(Cl)ccc34)nc(N)c21 (single isomer, unassigned) [Example 99B]" recorded_metric=Emax result_units=% experimental_result=110

P = CC1(c2ccc(CCc3nn[nH]n3)cn2)C(=O)Nc2nc(-c3nn(Cc4ccccc4F)c4cc(Cl)ccc34)nc(N)c21 (single isomer, unassigned) [Example 247A]
Q = CC(C)(Cc1csc(C2(C3CC3)C(=O)Nc3nc(-c4nn(CCCC(F)(F)F)c5ncc(F)cc45)nc(N)c32)n1)C(=O)O (stereo not shown) [Example 96B]
Enquiry: Looking only at measured Emax, which entry is lower, P or Q ? Which one? Tell me its label.
Return: Q

---

Biological target: sGC α1/β1 heterodimer stably expressed in CHO-K1 cells (CHO-K1/sGC) (Homo sapiens (Human), UniProt Q02108+Q02153)
Assay: Cell-based sGC functional assay (Cyclic GMP Assay for sGC Activator: CASA assay)
Conditions: CHO-K1, activity expressed as a percentage of compound A (standard), read-out: % Activation
Protocol: Cell-based sGC Functional Assay (Cyclic GMP Assay for sGC Activator: CASA Assay) Soluble guanylate cyclase (sGC) is a heme-containing enzyme that converts GTP to secondary messenger cGMP. […] Methods: A CHO-K1 cell line stably expressing the sGC α1/β1 heterodimer was generated using a standard transfection protocol. […] The level of intracellular cGMP was determined using an HTRF-based assay kit (CisBio, 62GM2PEC), which detects the displacement of a fluorescence labeled cGMP from its specific antibody. […]
Recorded metric: Emax (%)

compound="CC1(c2cccc(-c3nn[nH]n3)c2)C(=O)Nc2nc(-c3nn(CCC(F)(F)C(F)(F)F)c4ncccc34)nc(N)c21 (single isomer, unassigned) [Example 252B]" experimental_result=87.6
compound="CC1(c2ccc(CCS(=O)(=O)O)cc2)C(=O)Nc2nc(-c3nn(Cc4ccccc4F)c4cc(Cl)ccc34)nc(N)c21 (single isomer, unassigned) [Example 258B]" experimental_result=98.2
compound="CC(C)(Cn1cc(C2(C)C(=O)Nc3nc(-c4nn(Cc5ccccc5F)c5cc(Cl)ccc45)nc(N)c32)nn1)C(=O)O (single isomer, unassigned) [Example 140A]" experimental_result=99
compound="CC1(c2cn(C(C)(C)C(=O)O)nn2)C(=O)Nc2nc(-c3nn(Cc4ccccc4F)c4cc(Cl)ccc34)nc(N)c21 (single isomer, unassigned) [Example 141A]" experimental_result=98.7
compound="CC1(N2CCC(CCC(=O)O)C2)C(=O)Nc2nc(-c3nn(Cc4ccccc4F)c4cc(Cl)ccc34)nc(N)c21 (single isomer, unassigned) [Example 261C]" experimental_result=113
